Study system: huCTLA4 (Homo sapiens, UniProt P16410)
Sequence (P16410 36-223): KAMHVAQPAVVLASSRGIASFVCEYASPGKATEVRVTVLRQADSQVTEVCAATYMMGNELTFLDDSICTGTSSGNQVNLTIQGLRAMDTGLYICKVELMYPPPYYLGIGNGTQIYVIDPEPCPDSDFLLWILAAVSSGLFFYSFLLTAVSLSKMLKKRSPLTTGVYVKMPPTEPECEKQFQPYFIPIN
Test name: Flow binding to CHO cells stably expressing CTLA4
Design: huCTLA4 and huPD-L1, full-length mammalian surface expression constructs were generated; expressed in transfected cells; host or cells: CHO cells, lentiviral transduction, sorted to >98% purity
Experimental setup: Table E10; 33.3 nM; CHO cells stably expressing CTLA4
Task for the reader: assign each of the following molecules its reported CTLA4 MFI at 33.3 nM.
Field format: numeric only.

Lookup: Can you share its CTLA4 MFI at 33.3 nM? I mean this molecule: E35D/D46E/M47I (protein) VIHVTKEVKEVATLSCGHNVSVEELAQTRIYWQKDKKMVLTMMSGEINIWPEYKNRTIFDITNNLSIVILALRPSDEGTYECVVLKYEKDAFKREHLAEVTLSVKAD
Found: 21394

Lookup: Can you share its CTLA4 MFI at 33.3 nM? I mean this molecule: E35D/M47I/N48K/I61F (protein) VIHVTKEVKEVATLSCGHNVSVEELAQTRIYWQKDKKMVLTMMSGDIKIWPEYKNRTIFDFTNNLSIVILALRPSDEGTYECVVLKYEKDAFKREHLAEVTLSVKAD
Found: 25859

Lookup: Can you share its CTLA4 MFI at 33.3 nM? I mean this molecule: M43I/M47L/A71G (protein) VIHVTKEVKEVATLSCGHNVSVEELAQTRIYWQKEKKMVLTMISGDLNIWPEYKNRTIFDITNNLSIVILGLRPSDEGTYECVVLKYEKDAFKREHLAEVTLSVKAD
Found: 23292

Lookup: Can you share its CTLA4 MFI at 33.3 nM? I mean this molecule: E35D/M47V/T62S/L85Q (protein) VIHVTKEVKEVATLSCGHNVSVEELAQTRIYWQKDKKMVLTMMSGDVNIWPEYKNRTIFDISNNLSIVILALRPSDEGTYECVVQKYEKDAFKREHLAEVTLSVKAD
Found: 31230
